Reference source for all entries: patent US10702498B2

# system.under.test: humanDOR (Homo sapiens (Human), UniProt P41143)
# Sequence (P41143 whole entry): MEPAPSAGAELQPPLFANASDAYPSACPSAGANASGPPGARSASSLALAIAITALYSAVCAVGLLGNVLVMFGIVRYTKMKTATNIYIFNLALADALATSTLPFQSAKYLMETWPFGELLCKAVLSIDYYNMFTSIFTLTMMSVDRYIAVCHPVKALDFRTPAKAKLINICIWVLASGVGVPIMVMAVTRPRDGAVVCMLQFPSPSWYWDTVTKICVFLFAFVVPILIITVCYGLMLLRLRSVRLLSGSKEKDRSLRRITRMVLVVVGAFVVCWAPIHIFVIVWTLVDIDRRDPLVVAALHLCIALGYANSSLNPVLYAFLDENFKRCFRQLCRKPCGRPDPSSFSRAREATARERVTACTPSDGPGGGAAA
# assay.notes: Receptor binding, [3H]diprenorphine
value.kind: pKi
In textbook form, pKi equals minus log to base ten of the concentration in mol/L.

[[record]]
compound = "CN(C)[C@H](CNC(=O)NCCc1ccccc1F)Cc1ccc(O)cc1"
quantitative_readout = 7.28

[[record]]
compound = "CC(Cc1csc2ccccc12)NC(=O)NC[C@H](Cc1ccc(O)cc1)N(C)C (mixture of isomers) [DD 63L-RS]"
quantitative_readout = 7.36

[[record]]
compound = "COc1ccc(CCNC(=O)NC[C@H](Cc2ccc(O)cc2)N(C)C)cc1"
quantitative_readout = 5.00

[[record]]
compound = "COc1ccccc1CCNC(=O)NC[C@H](Cc1ccc(O)cc1)N(C)C"
quantitative_readout = 6.82


Recorded pKi for "CN(CCO)[C@H](CNC(=O)NCCc1ccccc1)Cc1ccc(O)cc1" , please?
5.74

What about "COc1cccc(CCNC(=O)NC[C@H](Cc2ccc(O)cc2)N(C)C)c1" ?
6.66

Proceed to C[C@H](Cc1ccsc1)NC(=O)NC[C@H](Cc1ccccc1)N(C)C (stereo in doubt) [BD 127LR]
5.74

Please do the same for "CN(C)[C@H](CNC(=O)NCCc1cn(CCOCCOCCOCCN=[N+]=[N-])nn1)Cc1ccc(O)cc1" as well.
5.41

Try the compound "CN(C)[C@H](CNC(=O)NCCc1cn(Cc2ccccc2)nn1)Cc1ccc(O)cc1"
6.24

Note, next up: "CN(CCCl)[C@H](CNC(=O)NCCc1ccccc1)Cc1ccc(O)cc1"
6.44

====

Reported Ki by item:
# system.under.test: hKOR (Homo sapiens (Human))
# Sequence (P41145 whole entry): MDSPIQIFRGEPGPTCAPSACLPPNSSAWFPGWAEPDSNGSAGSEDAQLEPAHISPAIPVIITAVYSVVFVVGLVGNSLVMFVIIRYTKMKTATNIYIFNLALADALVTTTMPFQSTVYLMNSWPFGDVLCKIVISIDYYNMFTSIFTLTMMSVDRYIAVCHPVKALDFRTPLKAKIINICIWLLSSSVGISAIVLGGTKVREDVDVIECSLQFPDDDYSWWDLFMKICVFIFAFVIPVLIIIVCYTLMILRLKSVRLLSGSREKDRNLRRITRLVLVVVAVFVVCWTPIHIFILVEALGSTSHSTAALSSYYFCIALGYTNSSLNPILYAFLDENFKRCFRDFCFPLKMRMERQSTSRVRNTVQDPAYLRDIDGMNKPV
# assay.notes: Receptor binding, [3H]diprenorphine
# protocol.conditions: hKOR [3H]dyprenorphine Ki
Number in nM, nothing else.

[[record]]
molecule = "C[C@@H](Cc1ccsc1)NC(=O)NC[C@H](Cc1ccc(O)cc1)N(C)C"
value_kind = "Ki"
quantitative_readout = 33

[[record]]
molecule = "C[C@H](Cc1ccsc1)NC(=O)NC[C@H](Cc1ccccc1)N(C)C (stereo in doubt) [BD 127LR]"
value_kind = "Ki"
quantitative_readout = 1300

[[record]]
molecule = "C[C@H](Cc1ccsc1)NC(=O)NC[C@H](Cc1ccc(O)cc1)N(C)C (stereo in doubt) [BD 122LR]"
value_kind = "Ki"
quantitative_readout = 190


Let us move to another entry and its Ki.
Which value of Ki has been reported for CC(Cc1csc2ccccc12)NC(=O)NC[C@H](Cc1ccc(O)cc1)N(C)C (mixture of isomers) [DD 63L-RS] in the records?
14

====

# system.under.test: MOR (Homo sapiens (Human))
# assay.notes: Functional annotation (MOR agonist / antagonist), method not stated
# protocol.conditions: read-out: MOR agonist (potency printed under structure)
value.kind: pEC50
When answering, recall that pEC50 equals minus log10 of the concentration in mol/L, and write that number alone.

Form field: pEC50 recorded for "CN(C)[C@H](CNC(=O)NCCc1ccsc1)Cc1ccc(O)cc1" with MOR (Homo sapiens (Human)) (enter value)
7.24

====

# system.under.test: hKOR (Homo sapiens (Human))
# assay.notes: Receptor binding, [3H]diprenorphine
# protocol.conditions: binding affinity Ki [nM] hKOR
value.kind: Ki
Please state the value followed by its unit.

Check out these entries, answers already filled in.
[[record]]
compound = "C[C@H](Cc1ccsc1)NC(=O)NC[C@H](Cc1ccc(O)cc1)N(C)C (stereo in doubt) [BD 122LR]"
result = "190 nM"

[[record]]
compound = "COc1ccccc1CCNC(=O)NC[C@H](Cc1ccc(O)cc1)N(C)C"
result = "140 nM"

[[record]]
compound = "CC(Cc1csc2ccccc12)NC(=O)NC[C@H](Cc1ccc(O)cc1)N(C)C (mixture of isomers) [DD 63L-RS]"
result = "19 nM"

[[record]]
compound = "CN(C)[C@H](CNC(=O)NCCc1ccccc1F)Cc1ccc(O)cc1"
result = "440 nM"


Entry under review: "CN(C)[C@H](CNC(=O)NCCc1cccc(F)c1)Cc1ccc(O)cc1" . Reported Ki?
170 nM

Can you check "CN(C)[C@H](CNC(=O)NCCc1cn(CCOCCOCCOCCN=[N+]=[N-])nn1)Cc1ccc(O)cc1" next?
2900 nM

Same for "CN(C)[C@H](CNC(=O)NCCc1ccc(F)cc1)Cc1ccc(O)cc1"
190 nM

Further, for C[C@H](Cc1ccsc1)NC(=O)NC[C@H](Cc1ccccc1)N(C)C (stereo in doubt) [BD 127LR] ?
1300 nM
